- PROTOCOL_SUMMARY: Molar extinction coefficient of i-line (365 nm), UV-visible absorbance in acetonitrile
- Format: physicochemical
- MEASUREMENT_CONDITIONS: 0.25 mmol/L in acetonitrile, cell length 1 cm
REPORTED_METRIC: Molar extinction coefficient

>>> value_reported("CCCCC(CC)C(=O)Oc1cc2c3c(cccc3c1)C(=O)N(OS(=O)(=O)c1c(F)c(F)c(F)c(F)c1F)C2=O (centres unmarked)")
"1500 L/mol/cm"
>>> value_reported("CC1(C)C2CCC1(CS(=O)(=O)ON1C(=O)c3cccc4c(C(F)(F)C(F)(F)C(F)(F)C(F)(F)C(F)(F)C(F)(F)C(F)(F)C(F)(F)F)ccc(c34)C1=O)C(=O)C2 (centres unmarked)")
"80 L/mol/cm"
>>> value_reported("CCCOc1ccc2c3c(cccc13)C(=O)N(OS(=O)(=O)CC13CCC(CC1=O)C3(C)C)C2=O (centres unmarked)")
"14000 L/mol/cm"
>>> value_reported("CC1(C)C2CCC1(CS(=O)(=O)ON1C(=O)c3cccc4c(Oc5c(F)c(F)c(F)c(F)c5F)ccc(c34)C1=O)C(=O)C2 (centres unmarked)")
"12000 L/mol/cm"
>>> value_reported("CC1(C)C2CCC1(CS(=O)(=O)ON1C(=O)c3cccc4c(C(=O)Cc5ccccc5)ccc(c34)C1=O)C(=O)C2 (centres unmarked)")
"3000 L/mol/cm"
>>> value_reported("O=C1c2cc(C34CC5CC(CC(C5)C3)C4)cc3cc(C45CC6CC(CC(C6)C4)C5)cc(c23)C(=O)N1OS(=O)(=O)C(F)(F)F")
"6000 L/mol/cm"
>>> value_reported("COc1cc2c3c(cccc3c1)C(=O)N(OS(=O)(=O)C(F)(F)F)C2=O")
"7500 L/mol/cm"
>>> value_reported("CC1(C)C2CCC1(CS(=O)(=O)ON1C(=O)c3cccc4c(Br)ccc(c34)C1=O)C(=O)C2 (centres unmarked)")
"8500 L/mol/cm"
>>> value_reported("CC1(C)C2CC[C@@]1(CS(=O)(=O)ON1C(=O)c3cccc4c(Sc5ccccc5)ccc(c34)C1=O)C(=O)C2")
"20000 L/mol/cm"
>>> value_reported("O=C(Oc1cc2c3c(cccc3c1)C(=O)N(OS(=O)(=O)c1c(F)c(F)c(F)c(F)c1F)C2=O)c1c(F)c(F)c(F)c(F)c1F")
"1300 L/mol/cm"
>>> value_reported("CC1(C)C2CC[C@@]1(CS(=O)(=O)ON1C(=O)c3cc(C45CC6CC(CC(C6)C4)C5)cc4cc(C56CC7CC(CC(C7)C5)C6)cc(c34)C1=O)C(=O)C2")
"6000 L/mol/cm"
>>> value_reported("CC(C)(C)Cc1cc2c3c(cc(CC(C)(C)C)cc3c1)C(=O)N(OS(=O)(=O)c1c(F)c(F)c(F)c(F)c1F)C2=O")
"6200 L/mol/cm"
>>> value_reported("O=C1c2cc(C34CC5CC(CC(C5)C3)C4)cc3cc(C45CC6CC(CC(C6)C4)C5)cc(c23)C(=O)N1OS(=O)(=O)c1c(F)c(F)c(F)c(F)c1F")
"6000 L/mol/cm"
>>> value_reported("O=C1c2cccc3cccc(c23)C(=O)N1OS(=O)(=O)c1c(F)c(F)c(F)c(F)c1F [A′-3, reference compound]")
"330 L/mol/cm"
>>> value_reported("O=C1c2cccc3c(C(F)(F)C(F)(F)C(F)(F)C(F)(F)F)ccc(c23)C(=O)N1OS(=O)(=O)C(F)(F)F")
"40 L/mol/cm"
>>> value_reported("O=C1c2cccc3c(Br)ccc(c23)C(=O)N1OS(=O)(=O)c1c(F)c(F)c(F)c(F)c1F")
"8500 L/mol/cm"
>>> value_reported("CCCC(=O)Oc1cc2c3c(cccc3c1)C(=O)N(OS(=O)(=O)c1c(F)c(F)c(F)c(F)c1F)C2=O")
"1600 L/mol/cm"
>>> value_reported("CC(C)Oc1ccc2c3c(cccc13)C(=O)N(OS(=O)(=O)c1c(F)c(F)c(F)c(F)c1F)C2=O")
"16300 L/mol/cm"
>>> value_reported("O=C1c2cccc3c(Oc4c(F)c(F)c(F)c(F)c4F)ccc(c23)C(=O)N1OS(=O)(=O)c1c(F)c(F)c(F)c(F)c1F")
"12000 L/mol/cm"
>>> value_reported("CC(C)(C)Cc1cc2c3c(cc(CC(C)(C)C)cc3c1)C(=O)N(OS(=O)(=O)C(F)(F)F)C2=O")
"6200 L/mol/cm"
>>> value_reported("O=C1c2cccc3c(Cl)ccc(c23)C(=O)N1OS(=O)(=O)C(F)(F)F")
"6000 L/mol/cm"
>>> value_reported("O=C(Oc1cc2c3c(cccc3c1)C(=O)N(OS(=O)(=O)c1c(F)c(F)c(F)c(F)c1F)C2=O)c1ccccc1")
"1400 L/mol/cm"
>>> value_reported("O=C1c2cccc3c(Br)ccc(c23)C(=O)N1OS(=O)(=O)C(F)(F)F")
"8500 L/mol/cm"
>>> value_reported("CC1(C)C2CCC1(CS(=O)(=O)ON1C(=O)c3cccc4c(Oc5cccc(C(F)(F)F)c5)ccc(c34)C1=O)C(=O)C2 (centres unmarked)")
"16000 L/mol/cm"
>>> value_reported("O=C1c2cccc3c(C(F)(F)C(F)(F)C(F)(F)C(F)(F)C(F)(F)C(F)(F)C(F)(F)C(F)(F)F)ccc(c23)C(=O)N1OS(=O)(=O)C(F)(F)F")
"80 L/mol/cm"
>>> value_reported("CCCOc1ccc2c3c(cccc13)C(=O)N(OS(=O)(=O)C(F)(F)F)C2=O")
"14000 L/mol/cm"
